All values here come from ChEMBL document CHEMBL1157247.

- System: Candida albicans
- Assay name: Antifungal activity against Candida albicans ATCC 10231 by modified microtiter plate assay
- Type: functional
Observable: MIC
Reply with the number, then its unit.

Solved cases below.
C/C1=C/C(=O)O[C@@H]2CC(CC[C@H](C)/C=C\C=C\CC1)O[C@@](O)([C@H]1CSC(=O)N1)C2 ... 2.5 µM
CCCCCCCCO[C@]1([C@@H]2CSC(=O)N2)C[C@H]2C[C@@H](CC[C@H](C)/C=C\CC/C(C)=C\C(=O)O2)O1 ... 2.5 µM

Could you please provide reported MIC for CC(=O)N1C(=O)SC[C@H]1[C@@]1(O)C[C@H]2C[C@@H](CC[C@H](C)/C=C\CC/C(C)=C\C(=O)O2)O1 ? Thanks!
2.5 µM
